# Study System: full-length beta-Catenin (Uniprot ID P35222) (Homo sapiens (Human)) (UniProt P35222)
# Sequence (P35222 whole entry): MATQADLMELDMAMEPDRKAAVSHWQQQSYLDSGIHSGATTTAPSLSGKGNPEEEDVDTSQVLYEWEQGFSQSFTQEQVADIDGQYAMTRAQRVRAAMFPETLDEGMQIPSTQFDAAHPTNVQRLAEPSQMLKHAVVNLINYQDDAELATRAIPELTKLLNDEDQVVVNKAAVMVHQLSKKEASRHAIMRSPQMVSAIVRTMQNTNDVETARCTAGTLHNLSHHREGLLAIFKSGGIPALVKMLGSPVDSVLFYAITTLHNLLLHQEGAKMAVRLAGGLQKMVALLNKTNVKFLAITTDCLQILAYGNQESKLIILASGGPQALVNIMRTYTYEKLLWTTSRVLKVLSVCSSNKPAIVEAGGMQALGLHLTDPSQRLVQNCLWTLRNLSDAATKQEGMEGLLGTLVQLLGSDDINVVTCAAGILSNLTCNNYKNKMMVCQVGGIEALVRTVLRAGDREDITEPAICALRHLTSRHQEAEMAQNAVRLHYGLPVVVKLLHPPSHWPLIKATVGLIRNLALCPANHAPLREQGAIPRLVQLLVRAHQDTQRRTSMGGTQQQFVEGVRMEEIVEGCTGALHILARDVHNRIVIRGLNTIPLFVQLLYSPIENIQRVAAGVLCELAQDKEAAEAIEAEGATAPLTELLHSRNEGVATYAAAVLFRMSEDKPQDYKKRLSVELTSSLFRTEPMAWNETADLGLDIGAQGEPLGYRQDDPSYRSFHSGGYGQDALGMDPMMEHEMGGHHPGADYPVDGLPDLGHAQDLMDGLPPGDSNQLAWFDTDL
# Experiment Description: fluorescence polarization competition; full-length beta-catenin, competitor 5FAM-TCF4(10-53)
Starred links: 1 amine or outer side, 2 acyl side, 3 side chain; linkers in the order of their positions; H or OH if unused. Positions of bridges follow the written chain, without caps; N, C: chain ends. Non-standard residues stand in square brackets, D forms with d. Primed or numbered codes have the meaning given here. PyrS2″ = (S)-3-amino-1-((pent-4-en-1-yloxy)carbonyl)pyrrolidine-3-carboxylic acid (stapling residue), C=CCCCOC(=O)N1CC[C@@](N[*:1])(C(=O)[*:2])C1; B5(4) = 2,2-bis(4-pentenyl)glycine = 2-amino-2-(pent-4-en-1-yl)hept-6-enoic acid (stitching residue), C=CCCCC(CCCC=C)(N[*:1])C(=O)[*:2]; B5(5) = 2,2-bis(4-pentenyl)glycine, 2-amino-2-(pent-4-en-1-yl)hept-6-enoic acid (stitching residue), C=CCCCC(CCCC=C)(N[*:1])C(=O)[*:2]; TfeGA = (S)-2-amino-3-((carboxymethyl)(2,2,2-trifluoroethyl)amino)propanoic acid, O=C([C@H](CN(CC(=O)[*:3])CC(F)(F)F)N[*:1])[*:2]; B5(3) = 2,2-bis(4-pentenyl)glycine (stitching residue), C=CCCCC(CCCC=C)(N[*:1])C(=O)[*:2]; Phe(3-COOH) = N[C@@H](Cc1cccc(C(=O)O)c1)C(=O)O; Asp(3R-OH) = N[C@H](C(=O)O)[C@@H](O)C(=O)O; Bta = N[C@@H](Cc1csc2ccccc12)C(=O)O; Lys(iPr) = CC(C)NCCCC[C@H](N)C(=O)O; αAllylPro = C=CC[C@@]1(C(=O)O)CCCN1; tBuAla = CC(C)(C)C[C@H](N)C(=O)O; 3Thi = N[C@@H](Cc1ccsc1)C(=O)O
Outcome Measure: IC50 (nM)

Binder	Outcome Measure	Test Result
Ac-[αAllylPro]D[tBuAla][B5(5)]D[TfeGA][Lys(iPr)]AFT[PyrS2″][3Thi][Bta]V-NH2 (staple 1-4, 4-11; also: -CH=CH- in each staple reduced to -CH2-CH2-) [I-1770]	IC50	175
Ac-[αAllylPro]D[tBuAla][B5(4)]D[TfeGA][Lys(iPr)]AFL[PyrS2″][3Thi][Bta]V-NH2 (staple 1-4, 4-11; also: -CH=CH- in each staple reduced to -CH2-CH2-) [I-1769]	IC50	419
Ac-[αAllylPro][Asp(3R-OH)][tBuAla][B5(3)]D[Phe(3-COOH)]AAFL[PyrS2″][3Thi][Bta]A-NH2 (staple 1-4, 4-11) [I-2258]	IC50	272
